# IC50 values compiled below
target: Kras and SOS1 (biotin-tagged human Kras loaded with GDP, His-tagged human SOS1) (Homo sapiens, UniProt P01116, G12D); construct: made in house; host or cells: E. coli (stated for Kras only); experiment: Protein-protein interaction inhibition between Kras and SOS1 (KrasGl2D-SOS PPI) using AlphaScreen; format: binding; details: AlphaScreen; biotin-tagged human Kras loaded with GDP, His-tagged human SOS1; read-out: KRAS G12D-SOS PPI IC50
Sequence (P01116 1-188 isoform P01116-2 G12D): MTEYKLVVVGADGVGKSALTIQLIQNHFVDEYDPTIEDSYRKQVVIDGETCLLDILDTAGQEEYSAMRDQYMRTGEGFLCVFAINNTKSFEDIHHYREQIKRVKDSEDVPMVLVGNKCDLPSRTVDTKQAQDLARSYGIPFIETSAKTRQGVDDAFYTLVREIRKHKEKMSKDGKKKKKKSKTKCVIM
Positions of bridges follow the written chain, without caps; N, C: chain ends. Non-standard residues stand in square brackets, D forms with d. Residues, ends and D or L forms follow the SMILES beside them. *: point of attachment. hPhe(3-Cl-4-CF3) = N[C@@H](CCc1ccc(C(F)(F)F)c(Cl)c1)C(=O)O; hPhe(4-CF3) = N[C@@H](CCc1ccc(C(F)(F)F)cc1)C(=O)O; Phe(2-F,5-Br) = N[C@@H](Cc1cc(Br)ccc1F)C(=O)O; NMePhe(4-Cl) = CN[C@@H](Cc1ccc(Cl)cc1)C(=O)O; NMeY = CN[C@@H](Cc1ccc(O)cc1)C(=O)O; NMeCha = CN[C@@H](CC1CCCCC1)C(=O)O; NMeD = CN[C@@H](CC(=O)O)C(=O)O; NMeL = CN[C@@H](CC(C)C)C(=O)O; NMeV = CN[C@H](C(=O)O)C(C)C; d(β3hA) = C[C@@H](N)CC(=O)O; NMeAbu = CC[C@H](NC)C(=O)O; Pip = O=C(O)[C@@H]1CCCCN1; NMeA = CN[C@@H](C)C(=O)O; NMeAib = CNC(C)(C)C(=O)O; Nle = CCCC[C@H](N)C(=O)O; Piperidide = C1CCN(*)CC1; Ac5c = NC1(C(=O)O)CCCC1; Aze = O=C(O)[C@@H]1CCN1; Ac3c = NC1(C(=O)O)CC1; Sar = CNCC(=O)O
Assay metric: IC50 (nM)

[
  {
    "Compound": "CCCC[C@@H]1NC(=O)[C@H](Cc2cc(Br)ccc2F)NC(=O)CN(C)C(=O)[C@H](Cc2ccc(OC)cc2)N(C)C(=O)[C@@H]2CCN2C(=O)[C@H](C)N(C)C(=O)[C@H]([C@@H](C)CC)NC(=O)[C@H](CC)N(C)C(=O)C[C@@H](C(=O)N2CCCCC2)N(C)C(=O)[C@H](CC(C)C)NC(=O)C(C)(C)N(C)C1=O [Compound 1177] ([NMeAbu]I[NMeA][Aze][NMeY](Me)[Sar][Phe(2-F,5-Br)][Nle][NMeAib]L[NMeD]-Piperidide; lactam N-11)",
    "Unit label": "nM",
    "Result": 12
  },
  {
    "Compound": "CC[C@H](C)[C@@H]1NC(=O)[C@@H]2CCCCN2C(=O)C[C@@H](C)NC(=O)[C@H](CC(C)C)N(C)C(=O)C2(CCCC2)NC(=O)[C@H](CC(C)C)N(C)C(=O)[C@H](CCc2ccc(C(F)(F)F)cc2)NC(=O)CN(C)C(=O)[C@H](Cc2ccc(Cl)cc2)N(C)C(=O)CN(C)C(=O)CN(C)C1=O [Compound 847] (cyclo([Ac5c][NMeL][d(β3hA)][Pip]I[Sar][Sar][NMePhe(4-Cl)][Sar][hPhe(4-CF3)][NMeL]))",
    "Unit label": "nM",
    "Result": 54
  },
  {
    "Compound": "CC[C@H](C)[C@@H]1NC(=O)[C@H](CC(C)C)N(C)C(=O)C[C@@H](C(=O)N2CCCCC2)N(C)C(=O)[C@H](C(C)C)N(C)C(=O)C2(CC2)NC(=O)[C@@H]2CCCN2C(=O)[C@H](CCc2ccc(C(F)(F)F)c(Cl)c2)NC(=O)CN(C)C(=O)[C@H](CC2CCCCC2)N(C)C(=O)CN(C)C(=O)CN(C)C1=O [Compound 468] ([NMeL]I[Sar][Sar][NMeCha][Sar][hPhe(3-Cl-4-CF3)]P[Ac3c][NMeV][NMeD]-Piperidide; lactam N-11)",
    "Unit label": "nM",
    "Result": 2.5
  }
]
